# target_or_test_system: Kappa-type opioid receptor (Rattus norvegicus, UniProt P34975)
# Sequence (P34975 whole entry): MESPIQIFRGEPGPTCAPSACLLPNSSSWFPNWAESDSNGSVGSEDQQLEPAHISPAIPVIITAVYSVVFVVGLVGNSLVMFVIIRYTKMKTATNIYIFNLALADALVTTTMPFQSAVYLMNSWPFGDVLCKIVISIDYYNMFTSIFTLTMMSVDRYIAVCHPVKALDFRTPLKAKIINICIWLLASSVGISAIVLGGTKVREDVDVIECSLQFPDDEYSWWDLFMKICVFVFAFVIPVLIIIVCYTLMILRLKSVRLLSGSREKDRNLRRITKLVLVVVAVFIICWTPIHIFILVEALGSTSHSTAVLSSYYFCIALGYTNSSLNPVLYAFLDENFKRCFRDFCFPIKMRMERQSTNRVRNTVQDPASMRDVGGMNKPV
# assay_explanation: Binding affinity towards rat Opioid receptor kappa 1 expressed in CHO cells of chinese hamster ovary was determined using [3H]diprenorphine as radioligand
# Assay type: cell-based
value_type: Ki (nM)
Give bare numbers, in nM.

Solved entries:
CC(C)C[C@H](NC(=O)[C@@H](CCc1ccccc1)NC(=O)CNC(=O)CNC(=O)[C@@H](N)Cc1ccc(O)cc1)C(=O)N[C@@H](CCCN=C(N)N)C(=O)N[C@@H](CCCN=C(N)N)C(=O)N[C@H](C)C(=O)N[C@@H](CCCN=C(N)N)C(=O)N1CCC[C@H]1C(=O)N[C@@H](CCCCN)C(N)=O; 0.66
CC(C)C[C@H](NC(=O)[C@@H]1Cc2ccccc2CN1C(=O)CNC(=O)CNC(=O)[C@@H](N)Cc1ccc(O)cc1)C(=O)N[C@@H](CCCNC(=N)N)C(=O)N[C@@H](CCCNC(=N)N)C(=O)N[C@H](C)C(=O)N[C@@H](CCCNC(=N)N)C(=O)N1CCC[C@H]1C(=O)N[C@@H](CCCCN)C(N)=O; 4.69

Switching to the query record.
## Input Name the recorded Ki of CC(C)C[C@H](NC(=O)[C@H](CCc1ccccc1)NC(=O)CNC(=O)CNC(=O)[C@@H](N)Cc1ccc(O)cc1)C(=O)N[C@@H](CCCN=C(N)N)C(=O)N[C@@H](CCCN=C(N)N)C(=O)N[C@H](C)C(=O)N[C@@H](CCCN=C(N)N)C(=O)N1CCC[C@H]1C(=O)N[C@@H](CCCCN)C(N)=O , assay system Kappa-type opioid receptor (Rattus norvegicus, UniProt P34975).
## Output 1.73

###

# target_or_test_system: Delta-type opioid receptor (Mus musculus, UniProt P32300)
# Sequence (P32300 whole entry): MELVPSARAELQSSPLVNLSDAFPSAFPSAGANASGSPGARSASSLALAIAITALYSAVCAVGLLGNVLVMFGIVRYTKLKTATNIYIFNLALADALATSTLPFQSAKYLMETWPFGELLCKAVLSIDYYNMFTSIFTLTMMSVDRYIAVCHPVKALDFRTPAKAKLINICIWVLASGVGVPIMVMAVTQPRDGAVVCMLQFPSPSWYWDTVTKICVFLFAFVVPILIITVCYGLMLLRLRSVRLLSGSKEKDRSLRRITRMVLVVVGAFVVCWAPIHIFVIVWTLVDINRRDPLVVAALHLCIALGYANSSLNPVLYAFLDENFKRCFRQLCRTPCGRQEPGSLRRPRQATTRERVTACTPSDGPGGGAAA
# assay_explanation: Binding affinity towards mouse Opioid receptor delta 1 expressed in CHO cells of chinese hamster ovary was determined using [3H]-[…] as radioligand
# Assay type: cell-based
# condition_label: cho
For each entry below, report its Ki value.
Give bare numbers, in nM.

Solved entries:
CC(C)C[C@H](NC(=O)[C@@H](CCc1ccccc1)NC(=O)CNC(=O)CNC(=O)[C@@H](N)Cc1ccc(O)cc1)C(=O)N[C@@H](CCCN=C(N)N)C(=O)N[C@@H](CCCN=C(N)N)C(=O)N[C@H](C)C(=O)N[C@@H](CCCN=C(N)N)C(=O)N1CCC[C@H]1C(=O)N[C@@H](CCCCN)C(N)=O; 190
CC(C)C[C@H](NC(=O)[C@@H](Cc1ccccc1)NC(=O)CNC(=O)CNC(=O)[C@@H](N)Cc1ccc(O)cc1)C(=O)N[C@@H](CCCN=C(N)N)C(=O)N[C@@H](CCCN=C(N)N)C(=O)N[C@H](C)C(=O)N[C@@H](CCCN=C(N)N)C(=O)N1CCC[C@H]1C(=O)N[C@@H](CCCCN)C(N)=O; 6.57
CC(C)C[C@H](NC(=O)[C@@](C)(Cc1ccccc1)NC(=O)CNC(=O)CNC(=O)[C@@H](N)Cc1ccc(O)cc1)C(=O)N[C@@H](CCCN=C(N)N)C(=O)N[C@@H](CCCN=C(N)N)C(=O)N[C@H](C)C(=O)N[C@@H](CCCN=C(N)N)C(=O)N1CCC[C@H]1C(=O)N[C@@H](CCCCN)C(N)=O; 157

## Input Identify measured Ki corresponding to CC(C)C[C@H](NC(=O)[C@H](Cc1ccccc1)N(C)C(=O)CNC(=O)CNC(=O)[C@@H](N)Cc1ccc(O)cc1)C(=O)N[C@@H](CCCN=C(N)N)C(=O)N[C@@H](CCCN=C(N)N)C(=O)N[C@H](C)C(=O)N[C@@H](CCCN=C(N)N)C(=O)N1CCC[C@H]1C(=O)N[C@@H](CCCCN)C(N)=O
## Output 56.1

Cited source: ChEMBL document CHEMBL1145081
